Experiment: Pharmacokinetics of SR13668 in monkeys after i.v. and oral gavage dosing
Assay type: in vivo, cynomolgus monkeys (macaca fasicularis)
Settings: male, cynomolgus monkey, whole blood, iv, 7.02 mg/kg, whole blood, 84.2 mg/m^2 (7.02 mg/kg) iv single dose, DMSO:PEG300 15:85 v/v, fed
Method: Four non-naïve male beagle dogs (approximately 3 years of age; Ridglan Farms Inc. Mt. Horeb, Wis.) and four non-naïve male cynomolgus monkeys [cynos (macaca fasicularis); approximately 7 to 8 years of age; Charles River Laboratories, Inc., Houston, Tex.] were used in this study. […] A freshly prepared SR13668 standard curve was analyzed along with samples on each day of analysis. […]
quantity_measured: MRT (h)
One number for each entry, in h.

Lab book: MRT of CCOC(=O)c1ccc2[nH]c3c(OC)c4[nH]c5ccc(C(=O)OCC)cc5c4cc3c2c1 [SR13668] noted as 9

* * *

assay: Pharmacokinetics of SR13668 in monkeys after i.v. and oral gavage dosing; type: in vivo, cynomolgus monkeys (macaca fasicularis); settings: male, cynomolgus monkey, whole blood, po, 28.06 mg/kg, whole blood, 336.7 mg/m^2 (28.06 mg/kg) oral gavage, PEG400:Labrasol 1:1 v/v, seventh daily dose, fed
quantity_measured: Cmax (ng/mL)
Give bare numbers, in ng/mL.

Lab book: Cmax of CCOC(=O)c1ccc2[nH]c3c(OC)c4[nH]c5ccc(C(=O)OCC)cc5c4cc3c2c1 noted as 168

* * *

assay: Solubility of SR13668 in various solvents; format: physicochemical; conditions: organic solvent or mixture, thermodynamic from solid; Methanol; RT; UV
quantity_measured: solubility (µg/mL)
Give bare numbers, in µg/mL.

Lab book: solubility of CCOC(=O)c1ccc2[nH]c3c(OC)c4[nH]c5ccc(C(=O)OCC)cc5c4cc3c2c1 noted as 86.3

* * *

test: Pharmacokinetics of SR13668 in monkeys after i.v. and oral gavage dosing; type: in vivo, cynomolgus monkeys (macaca fasicularis); details: male, cynomolgus monkey, whole blood, po, 28.06 mg/kg, whole blood, 336.7 mg/m^2 (28.06 mg/kg) oral gavage, PEG400:Labrasol 1:1 v/v, seventh daily dose, fed
quantity_measured: Tmax (h)
One number for each entry, in h.

Lab book: Tmax of CCOC(=O)c1ccc2[nH]c3c(OC)c4[nH]c5ccc(C(=O)OCC)cc5c4cc3c2c1 noted as 3.5

* * *

assay: Solubility of SR13668 in various solvents; assay type: physicochemical; conditions: organic solvent or mixture, thermodynamic from solid; PEG-400 New; RT; UV
quantity_measured: solubility (µg/mL)
Numbers only, in µg/mL.

Lab book: solubility of CCOC(=O)c1ccc2[nH]c3c(OC)c4[nH]c5ccc(C(=O)OCC)cc5c4cc3c2c1 [SR13668] noted as 1370

* * *

experiment: Pharmacokinetics of SR13668 in monkeys after i.v. and oral gavage dosing; type: in vivo, cynomolgus monkeys (macaca fasicularis); conditions: male, cynomolgus monkey, plasma, po, 7.02 mg/kg, plasma, 84.2 mg/m^2 (7.02 mg/kg) oral gavage, PEG400:Labrasol 1:1 v/v, seventh daily dose, fed
quantity_measured: MRT (h)
Numbers only, in h.

Lab book: MRT of CCOC(=O)c1ccc2[nH]c3c(OC)c4[nH]c5ccc(C(=O)OCC)cc5c4cc3c2c1 noted as 11.6

* * *

experiment: Pharmacokinetics of SR13668 in monkeys after i.v. and oral gavage dosing; assay type: in vivo, cynomolgus monkeys (macaca fasicularis); details: male, cynomolgus, cynomolgus monkey, plasma, iv, 7.02 mg/kg, plasma, 84.2 mg/m^2 (7.02 mg/kg) i.v. single dose, DMSO:PEG300 15:85 v/v, fed
quantity_measured: Tmax
Show the value, then the unit it is measured in.

Lab book: Tmax of CCOC(=O)c1ccc2[nH]c3c(OC)c4[nH]c5ccc(C(=O)OCC)cc5c4cc3c2c1 noted as 15 min

* * *

Experiment: Pharmacokinetics of SR13668 in monkeys after i.v. and oral gavage dosing
Format: in vivo, cynomolgus monkeys (macaca fasicularis)
Conditions: male, cynomolgus, cynomolgus monkey, plasma, po, 7.02 mg/kg, 84.2 mg/m^2 (7.02 mg/kg) oral gavage, Solutol, seventh daily dose, fed
Procedure: Four non-naïve male beagle dogs (approximately 3 years of age; Ridglan Farms Inc. Mt. Horeb, Wis.) and four non-naïve male cynomolgus monkeys [cynos (macaca fasicularis); approximately 7 to 8 years of age; Charles River Laboratories, Inc., Houston, Tex.] were used in this study. […] A freshly prepared SR13668 standard curve was analyzed along with samples on each day of analysis. […]
quantity_measured: half-life

Lab book: half-life of CCOC(=O)c1ccc2[nH]c3c(OC)c4[nH]c5ccc(C(=O)OCC)cc5c4cc3c2c1 noted as 7.4 h

* * *

assay: Pharmacokinetics of SR13668 in dogs after i.v. and oral gavage dosing; type: in vivo, beagle dogs; conditions: male, beagle, dog, plasma, po, 4.68 mg/kg, dogs; 93.6 mg/m^2 (4.68 mg/kg) oral gavage, Solutol, seventh daily dose; fasted
quantity_measured: half-life (h)
One number for each entry, in h.

Lab book: half-life of CCOC(=O)c1ccc2[nH]c3c(OC)c4[nH]c5ccc(C(=O)OCC)cc5c4cc3c2c1 noted as 9.7

* * *

test: Pharmacokinetics of SR13668 in dogs after i.v. and oral gavage dosing; type: in vivo, beagle dogs; conditions: male, beagle, dog, whole blood, iv, 4.68 mg/kg, dogs, whole blood; 93.6 mg/m^2 (4.68 mg/kg) iv single dose, DMSO:PEG300 15:85 v/v; fed
quantity_measured: MRT (h)
Give bare numbers, in h.

Lab book: MRT of CCOC(=O)c1ccc2[nH]c3c(OC)c4[nH]c5ccc(C(=O)OCC)cc5c4cc3c2c1 [SR13668] noted as 6.7

* * *

Assay: Pharmacokinetics of SR13668 in dogs after i.v. and oral gavage dosing
Assay type: in vivo, beagle dogs
Conditions: male, beagle (dogs), dog; across all oral groups, dogs and monkeys; whole blood; read-out: blood oral bioavailability, range
Method: Four non-naïve male beagle dogs (approximately 3 years of age; Ridglan Farms Inc. Mt. Horeb, Wis.) and four non-naïve male cynomolgus monkeys [cynos (macaca fasicularis); approximately 7 to 8 years of age; Charles River Laboratories, Inc., Houston, Tex.] were used in this study. […] A freshly prepared SR13668 standard curve was analyzed along with samples on each day of analysis. […]
quantity_measured: bioavailability

Lab book: bioavailability of CCOC(=O)c1ccc2[nH]c3c(OC)c4[nH]c5ccc(C(=O)OCC)cc5c4cc3c2c1 noted as 1.1 to 17.2%

* * *

experiment: Oral bioavailability of PEG400:Labrasol formulation in dogs (earlier finding); conditions: dog, in vivo
quantity_measured: bioavailability

Lab book: bioavailability of CCOC(=O)c1ccc2[nH]c3c(OC)c4[nH]c5ccc(C(=O)OCC)cc5c4cc3c2c1 noted as < 1%

* * *

Test: Solubility of SR13668 in various solvents
Type: physicochemical
Conditions: organic solvent or mixture, thermodynamic from solid; 1-octanol; RT; HPLC
Source text: The other three systems are similar to the Solutol solutions, but the Solutol is the best candidate having the lowest freezing point (see Table 10) and a high SR13668 solubility (see Table 11). […] Vit E TPGS is water soluble natural-source vitamin E d-alpha tocopheryl polyethyleneglycol succinate, 387 IU/g. Myrj is Polyethylene Glycol (50) Monostearate.
quantity_measured: solubility (µg/mL)
One number for each entry, in µg/mL.

Lab book: solubility of CCOC(=O)c1ccc2[nH]c3c(OC)c4[nH]c5ccc(C(=O)OCC)cc5c4cc3c2c1 [SR13668] noted as 123

* * *

experiment: Pharmacokinetics of SR13668 in monkeys after i.v. and oral gavage dosing; type: in vivo, cynomolgus monkeys (macaca fasicularis); conditions: male, cynomolgus monkey, whole blood, po, 7.02 mg/kg, whole blood, 84.2 mg/m^2 (7.02 mg/kg) oral gavage, PEG400:Labrasol 1:1 v/v, seventh daily dose, fed
quantity_measured: half-life (h)
Answers are plain numbers, in h.

Lab book: half-life of CCOC(=O)c1ccc2[nH]c3c(OC)c4[nH]c5ccc(C(=O)OCC)cc5c4cc3c2c1 noted as 5.8

* * *

assay: Pharmacokinetics of SR13668 in monkeys after i.v. and oral gavage dosing; type: in vivo, cynomolgus monkeys (macaca fasicularis); conditions: male, cynomolgus monkey, plasma, po, 7.02 mg/kg, plasma, 84.2 mg/m^2 (7.02 mg/kg) oral gavage, Solutol, seventh daily dose, fed, read-out: CL/F (converted)
quantity_measured: CL/F (mL/min/kg)
Give bare numbers, in mL/min/kg.

Lab book: CL/F of CCOC(=O)c1ccc2[nH]c3c(OC)c4[nH]c5ccc(C(=O)OCC)cc5c4cc3c2c1 noted as 143

* * *

test: Solubility of SR13668 in various solvents; assay type: physicochemical; conditions: organic solvent or mixture, thermodynamic from solid; Methylene Chloride; RT; HPLC
quantity_measured: solubility (µg/mL)
Numbers only, in µg/mL.

Lab book: solubility of CCOC(=O)c1ccc2[nH]c3c(OC)c4[nH]c5ccc(C(=O)OCC)cc5c4cc3c2c1 noted as 62
